Please use t whenever melting point is not below 70 °C, and f whenever it is.

**Query** Is it the case that `CC(=O)CCc1ccc(CCC(C)=O)c([N+](=O)[O-])c1` has melting point reaching or exceeding 70 °C?
**Result** f

**Query** Is it the case that CC1(C)OC(C)(C(O)(c2ccccc2)c2ccccc2)CCC1C(=O)O (configuration not stated) has melting point reaching or exceeding 70 °C?
**Result** t

**Query** Is it the case that `Nc1ccc(O)c(C(=O)O)c1` has melting point reaching or exceeding 70 °C?
**Result** t

**Query** Is it the case that O=P1(NCCCl)OCCCN1CCCl (configuration not stated) has melting point reaching or exceeding 70 °C?
**Result** f

====

Measured melting point values are reported for all entries that follow.
Unit °C implied. Number only.

Reference set (2 entries):
Nc1ccc(N=Nc2ccc(S(N)(=O)=O)cc2)c(N)c1
250
CC(=O)OC1CCC2(C)C(CCC3C4CCC(=O)C4(C)CCC32)C1 (configuration not stated)
138

Proceeding to the next compound to report its melting point.
Briefly, melting point measured for NC1CONC1=O (configuration not stated) : 156

====

Measured melting point values are reported for all entries that follow.
Unit °C implied. Number only.

Reference set (3 entries):
CC(O)C(Cl)(Cl)Cl (centres undefined)
50.5
CC12CCC(C(=CC(N)=O)C1=O)C2(C)C (centres undefined)
152
O=C(O)c1ccc2c(c1)C(=O)c1ccccc1-2
341

Briefly, melting point measured for CC1=C(CCC(=O)O)c2cc3nc(cc4[nH]c(cc5[nH]c(cc1n2)c(C)c5C(C)O)c(C)c4C(C)O)C(C)=C3CCC(=O)O (centres undefined) : 172

Briefly, melting point measured for `O=C(O)c1ccc(F)c(Cl)c1` : 135

Briefly, melting point measured for `Cc1c(C)c(C)c2c(c1C)CC2` : 139

Briefly, melting point measured for `O=S1OCCO1` : -11

Briefly, melting point measured for CC1(C)C(C=C(Cl)Cl)C1C(=O)OC(C#N)c1ccc(F)c(Oc2ccccc2)c1 (centres undefined) : 93.5

Briefly, melting point measured for `Cc1cnc(CO)c(C)c1[N+](=O)[O-]` : 67

====

attribute-measured: melting point (°C)
Unit °C implied. Number only.

Cc1cccc(C)c1N(C)C
-36
O=C(O)c1cc(Br)c(Br)s1
230
O=C(c1ccc(OCc2ccccc2)cc1)c1cn(C(=O)c2ccc(OCc3ccccc3)cc2)c2ccccc12
181

Briefly, melting point measured for `O=[N+]([O-])c1ccsc1` : 78.5

====

Please use 1 whenever melting point is not below 100 °C, and -1 whenever it is.

Example cases with answers are listed next.
CC(C)N(C(=O)SCC(Cl)=CCl)C(C)C
-1
CCc1ccccc1Cc1ccccc1
-1
CCCC(CCC)C(N)=O
1
Brc1cn[nH]c1
-1
COc1c(C)c2c(c(O)c1CC=C(C)CCC(=O)O)C(=O)OC2
1

**Query** Is it the case that `O=C(c1ccco1)c1noc(-c2ccc(Cl)cc2)c1S(=O)(=O)c1ccccc1` has melting point reaching or exceeding 100 °C?
**Result** 1

**Query** Is it the case that BrC1C2CC3CC(C2)CC1C3 (stereo not drawn) has melting point reaching or exceeding 100 °C?
**Result** 1

====

Measured melting point values are reported for all entries that follow.
Unit °C implied. Number only.

CC(C)(C)OC(=O)N1CCC(O)CC1
63
O=C(Nc1ccc(Cl)cc1)Nc1ccc(Cl)cc1
270
COC(=O)c1cc(O)ccc1O
87
O=C(Nc1ccc(Br)cc1)C(C(F)(F)F)C(F)(F)F
186
Cc1ccc(OP2(=S)Oc3ccc(Cl)cc3Sc3cc(Cl)ccc3O2)c(C)c1
149
CCSC(=O)N(CC)C1CCCCC1
11.5

Briefly, melting point measured for `Cc1ccc(C(c2ccc(C)o2)c2cc([N+](=O)[O-])ccc2O)o1` : 143
